All figures here come from paper PMC9968196.

Measured pIC50 by item
- Tested on: human chronic myelogenous leukemia K562
- assay.info: Cytotoxicity, MTT assay
- Type: cell-based
- cond: 72 h
pIC50 is defined as minus the log10 of a concentration measured in mol/L.

Example results:
smiles.notation: CCC(=O)Oc1ccc(C=C2C(=O)OC(C)(C)OC2=O)cc1OC
target.or.system: human chronic myelogenous leukemia K562
pIC50: 4.13

smiles.notation: COc1cc(C=C2C(=O)OC(C)(C)OC2=O)cc([N+](=O)[O-])c1O
target.or.system: human chronic myelogenous leukemia K562
pIC50: 3.82

smiles.notation: CCCCCCCCOc1ccc(C=C2C(=O)OC(C)(C)OC2=O)cc1OC
target.or.system: human chronic myelogenous leukemia K562
pIC50: 4.13

smiles.notation: CCCCCCCOc1ccc(C=C2C(=O)OC(C)(C)OC2=O)cc1OC
target.or.system: human chronic myelogenous leukemia K562
pIC50: 4.16

smiles.notation: COc1cc(C=C2C(=O)OC(C)(C)OC2=O)ccc1OCCOCCOCCO
target.or.system: human chronic myelogenous leukemia K562
pIC50: 4.09

Fill in the recorded pIC50 for this compound, with human chronic myelogenous leukemia K562 as test system: CCCCCCCCCCOc1ccc(C=C2C(=O)OC(C)(C)OC2=O)cc1OC
4.20

Same question for COc1cc(C=C2C(=O)OC(C)(C)OC2=O)ccc1OC(=O)C1CC1 please.
4.15

Same question for COc1ccc(C(=O)Oc2ccc(C=C3C(=O)OC(C)(C)OC3=O)cc2OC)cc1 please.
3.98

Same question for CCCCCCOc1ccc(C=C2C(=O)OC(C)(C)OC2=O)cc1OC please.
4.14
